src = ChEMBL document CHEMBL1649390

System: MCF7
method: Induction of apoptosis in human MCF7 cells assessed as early apoptotic cells at IC50 concentration after 48 hrs using V-FITC and propidium iodide staining by flow cytometry relative to control
Assay type: functional
# label = rule met if Activity >= 20% else rule not met

Sample answers from the record:
O=[N+]([O-])c1ccccc1S(=O)(=O)N1CC(n2cnc3c(I)nc(Cl)nc32)OCc2ccccc21 (racemic)
rule met
c1ccc(Sc2nc(Sc3ccccc3)c3ncn(C4CNc5ccccc5CO4)c3n2)cc1 (racemic)
rule not met
COC(CN(c1ccccc1CO)S(=O)(=O)c1ccc([N+](=O)[O-])cc1)n1cnc2c(Cl)nc(Cl)nc21 (racemic)
rule met
O=[N+]([O-])c1ccc(S(=O)(=O)N2C[C@H](n3cnc4c(Cl)nc(Cl)nc43)OCc3ccccc32)cc1
rule met
O=[N+]([O-])c1ccc(S(=O)(=O)N2C[C@@H](n3cnc4c(Cl)nc(Cl)nc43)OCc3ccccc32)cc1
rule met

Identify whether the reported Activity of the following compound is 20% or greater: O=[N+]([O-])c1ccccc1S(=O)(=O)N1CC(n2cnc3c(Br)ncnc32)OCc2ccccc21 (racemic)
rule met

Repeat for the following compound: Nc1ccccc1S(=O)(=O)N1CC(n2cnc3c(Cl)nc(Cl)nc32)OCc2ccccc21 (racemic)
rule not met

What would you report for O=S(=O)(c1ccccc1NO)N1CC(n2cnc3c(Cl)nc(Cl)nc32)OCc2ccccc21 (racemic) ?
rule not met

Let us now turn to O=[N+]([O-])c1ccccc1S(=O)(=O)N1CC(n2cnc3nc(Cl)nc(Cl)c32)OCc2ccccc21 (racemic)
rule not met
